# target_system: T1, human CD45 (human, UniProt P08575 26-1306)
# T1 sequence: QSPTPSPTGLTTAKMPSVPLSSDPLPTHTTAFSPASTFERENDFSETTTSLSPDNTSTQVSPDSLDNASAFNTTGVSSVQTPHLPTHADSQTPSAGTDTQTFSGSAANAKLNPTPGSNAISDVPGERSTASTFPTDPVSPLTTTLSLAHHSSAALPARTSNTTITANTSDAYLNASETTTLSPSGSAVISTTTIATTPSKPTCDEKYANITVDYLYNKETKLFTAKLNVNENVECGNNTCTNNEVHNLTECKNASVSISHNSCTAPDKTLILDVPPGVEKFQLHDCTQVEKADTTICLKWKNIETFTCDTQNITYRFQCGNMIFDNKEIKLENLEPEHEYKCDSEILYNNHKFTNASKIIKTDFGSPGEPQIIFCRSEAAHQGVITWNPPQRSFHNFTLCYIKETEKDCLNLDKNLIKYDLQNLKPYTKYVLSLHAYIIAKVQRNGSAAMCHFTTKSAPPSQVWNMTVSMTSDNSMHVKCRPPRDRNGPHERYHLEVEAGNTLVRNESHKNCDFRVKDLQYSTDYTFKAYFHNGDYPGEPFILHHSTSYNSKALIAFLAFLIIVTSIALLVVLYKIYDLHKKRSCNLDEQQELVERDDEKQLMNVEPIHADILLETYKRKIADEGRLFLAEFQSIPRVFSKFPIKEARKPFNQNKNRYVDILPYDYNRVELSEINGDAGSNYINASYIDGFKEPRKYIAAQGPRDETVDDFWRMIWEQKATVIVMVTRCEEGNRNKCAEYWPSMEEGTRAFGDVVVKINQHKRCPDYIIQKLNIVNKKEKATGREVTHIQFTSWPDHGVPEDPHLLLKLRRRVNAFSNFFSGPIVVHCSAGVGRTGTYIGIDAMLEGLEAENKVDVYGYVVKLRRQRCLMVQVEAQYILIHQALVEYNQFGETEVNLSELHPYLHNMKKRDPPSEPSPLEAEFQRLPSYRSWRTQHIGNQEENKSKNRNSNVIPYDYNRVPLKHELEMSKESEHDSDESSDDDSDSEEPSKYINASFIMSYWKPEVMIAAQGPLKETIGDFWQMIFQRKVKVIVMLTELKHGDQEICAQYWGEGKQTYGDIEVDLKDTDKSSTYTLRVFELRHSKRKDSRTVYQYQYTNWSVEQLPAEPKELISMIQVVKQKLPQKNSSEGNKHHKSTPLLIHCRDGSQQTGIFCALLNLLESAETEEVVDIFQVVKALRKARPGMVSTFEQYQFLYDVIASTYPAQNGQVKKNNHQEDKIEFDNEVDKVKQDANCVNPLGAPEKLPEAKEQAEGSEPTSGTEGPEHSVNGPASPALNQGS
# test_name: cell-based or functional assay
readout_kind: Average EC50, viability assay, OCIM1 (CD45+), 5 days (pM)
Report only the number, with the unit pM understood.

Query block: I have this binder here, YTH24.5-B7 (antibody, V domains shown, PBD drug-linker B7 conjugated; sites and DAR not stated) VH: QVNLLQSGAALVKPGASVKLSCKASSYTFTDYYIHWVKQSHGKTLEWIGYINPKSGFTNYNEKFRRKATLTVDKSTNTAYMDISRLTSEDSATYYCTRRTGVIPMDAWGQGASVTVSS VL: DVVMTQTPVSLSVSLGGQVSISCRSSQSFVSSDGNTYLNWYLQKPGQSPQLLIYKVSNRLSGVPDRFSGSGSGTDFTLKISRVEHDDLGVYYCGQASKIPLTFGSGTKLEIKR , and I need its recorded Average EC50, viability assay, OCIM1 (CD45+), 5 days.
Result block: 2.18

Query block: Which Average EC50, viability assay, OCIM1 (CD45+), 5 days value belongs to YTH54.12-B2 (antibody, V domains shown, PBD drug-linker B2 conjugated; sites and DAR not stated) VH: EVQLVESGGGLVQPGGSMKLSCAASGFTFSDYYMAWVRQAPKKGLEWVASMSFAGSSTYYGDSVKGRFTISRDNAKTTLYLQMNSLRSEDTATYYCARMYTTDYYLYWYFDFWGPGTMVTVSS VL: DVQMTQSPSYLAASPGESVSISCKASKSISNYLAWYQQKPGEANKILIYSGSTLQSGTPSRFSGSGSGTDFSLTIRNLEPEDFAVYYCQQYDEKPLTFGSGTKLEIKR ?
Result block: 0.58

Query block: Reported Average EC50, viability assay, OCIM1 (CD45+), 5 days, binder YTH54.12-B4 (antibody, V domains shown, PBD drug-linker B4 (non-cleavable) conjugated; sites and DAR not stated) VH: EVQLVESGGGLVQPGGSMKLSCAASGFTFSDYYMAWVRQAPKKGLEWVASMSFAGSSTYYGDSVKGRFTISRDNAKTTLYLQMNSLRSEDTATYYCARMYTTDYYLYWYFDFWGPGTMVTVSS VL: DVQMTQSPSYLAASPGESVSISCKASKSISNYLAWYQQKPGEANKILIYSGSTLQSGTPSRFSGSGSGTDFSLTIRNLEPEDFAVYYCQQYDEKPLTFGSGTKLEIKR : ____
Result block: 0.22

Hello, the source for this data is patent US20220096654A1, in case you need it.
